Test system: S. epidermidis ATCC 12228
Assay: MIC microdilution (Table I-1)
Type: cell-based, Staphylococcus epidermidis
Details: Staphylococcus epidermidis, ATCC12228, read after 18 hours, read-out: MIC
Observable: MIC

Illustrative cases are given below, each with its answer.
Q: Please list MIC recorded for the molecule O=C(C(=O)N1CCOCC1c1c[nH]c2ccccc12)c1c[nH]c2ccccc12 (stereo not drawn)
Ans: > 128 µg/mL

Q: Please list MIC recorded for the molecule CC(C)(C)OC(=O)N1CCN(C(=O)C(=O)c2c[nH]c3ccc(Br)cc23)C(c2c[nH]c3ccc(Br)cc23)C1 (stereo not drawn)
Ans: > 128 µg/mL

Then there is this molecule:
Q: Please list MIC recorded for the molecule O=C(C(=O)N1CCCCC1c1c[nH]c2ccccc12)c1c[nH]c2ccccc12 (stereo not drawn)
Ans: > 128 µg/mL
